Molecular target: Recombinant JAK1 (Homo sapiens, UniProt P23458)
Sequence (P23458 whole entry): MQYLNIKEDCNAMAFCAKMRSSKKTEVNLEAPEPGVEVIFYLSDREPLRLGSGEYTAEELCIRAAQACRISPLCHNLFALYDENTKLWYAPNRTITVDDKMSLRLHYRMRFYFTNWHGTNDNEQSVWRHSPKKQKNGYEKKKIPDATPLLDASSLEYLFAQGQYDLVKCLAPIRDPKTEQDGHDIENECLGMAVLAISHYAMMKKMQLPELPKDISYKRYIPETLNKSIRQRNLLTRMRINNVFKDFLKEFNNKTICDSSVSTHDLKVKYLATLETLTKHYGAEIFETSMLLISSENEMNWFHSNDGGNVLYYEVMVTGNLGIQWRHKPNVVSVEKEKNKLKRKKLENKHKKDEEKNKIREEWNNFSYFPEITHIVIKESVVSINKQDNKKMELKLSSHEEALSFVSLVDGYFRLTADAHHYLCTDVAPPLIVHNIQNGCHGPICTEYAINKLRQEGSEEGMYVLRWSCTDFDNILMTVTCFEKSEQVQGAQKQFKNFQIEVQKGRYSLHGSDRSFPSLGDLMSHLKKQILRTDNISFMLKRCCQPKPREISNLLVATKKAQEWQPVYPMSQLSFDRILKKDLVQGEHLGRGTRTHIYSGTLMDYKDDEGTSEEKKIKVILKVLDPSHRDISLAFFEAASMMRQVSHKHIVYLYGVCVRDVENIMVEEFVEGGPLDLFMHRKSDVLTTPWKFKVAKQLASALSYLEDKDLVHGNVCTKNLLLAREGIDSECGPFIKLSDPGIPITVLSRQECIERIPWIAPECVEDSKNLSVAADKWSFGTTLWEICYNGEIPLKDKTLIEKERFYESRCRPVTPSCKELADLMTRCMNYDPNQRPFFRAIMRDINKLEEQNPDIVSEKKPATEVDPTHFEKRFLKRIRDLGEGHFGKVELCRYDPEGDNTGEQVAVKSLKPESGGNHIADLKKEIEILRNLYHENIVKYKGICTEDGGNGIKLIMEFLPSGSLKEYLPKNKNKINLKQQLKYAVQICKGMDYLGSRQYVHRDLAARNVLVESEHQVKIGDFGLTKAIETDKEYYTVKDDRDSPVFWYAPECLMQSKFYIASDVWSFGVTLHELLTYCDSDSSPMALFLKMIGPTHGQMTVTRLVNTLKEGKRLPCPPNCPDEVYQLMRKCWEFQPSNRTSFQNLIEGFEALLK
Experiment: In vitro enzyme assay (Cisbio kinase assay), JAK1
Conditions: ATP 300 μM; read-out: Enzymatic assay: IC50 JAK1
propertyMeasured: pIC50
Answers are plain numbers, as −log10 of the molar value.

For the record O=S(=O)(N[C@H]1C[C@@H](N2CCOc3cnc4[nH]ccc4c32)C1)C1CN(C2CC2)C1 , what value of pIC50 is listed for Recombinant JAK1 (Homo sapiens, UniProt P23458)?
8.05

====

Target: JAK3 (Homo sapiens, UniProt P52333)
Sequence (P52333 whole entry): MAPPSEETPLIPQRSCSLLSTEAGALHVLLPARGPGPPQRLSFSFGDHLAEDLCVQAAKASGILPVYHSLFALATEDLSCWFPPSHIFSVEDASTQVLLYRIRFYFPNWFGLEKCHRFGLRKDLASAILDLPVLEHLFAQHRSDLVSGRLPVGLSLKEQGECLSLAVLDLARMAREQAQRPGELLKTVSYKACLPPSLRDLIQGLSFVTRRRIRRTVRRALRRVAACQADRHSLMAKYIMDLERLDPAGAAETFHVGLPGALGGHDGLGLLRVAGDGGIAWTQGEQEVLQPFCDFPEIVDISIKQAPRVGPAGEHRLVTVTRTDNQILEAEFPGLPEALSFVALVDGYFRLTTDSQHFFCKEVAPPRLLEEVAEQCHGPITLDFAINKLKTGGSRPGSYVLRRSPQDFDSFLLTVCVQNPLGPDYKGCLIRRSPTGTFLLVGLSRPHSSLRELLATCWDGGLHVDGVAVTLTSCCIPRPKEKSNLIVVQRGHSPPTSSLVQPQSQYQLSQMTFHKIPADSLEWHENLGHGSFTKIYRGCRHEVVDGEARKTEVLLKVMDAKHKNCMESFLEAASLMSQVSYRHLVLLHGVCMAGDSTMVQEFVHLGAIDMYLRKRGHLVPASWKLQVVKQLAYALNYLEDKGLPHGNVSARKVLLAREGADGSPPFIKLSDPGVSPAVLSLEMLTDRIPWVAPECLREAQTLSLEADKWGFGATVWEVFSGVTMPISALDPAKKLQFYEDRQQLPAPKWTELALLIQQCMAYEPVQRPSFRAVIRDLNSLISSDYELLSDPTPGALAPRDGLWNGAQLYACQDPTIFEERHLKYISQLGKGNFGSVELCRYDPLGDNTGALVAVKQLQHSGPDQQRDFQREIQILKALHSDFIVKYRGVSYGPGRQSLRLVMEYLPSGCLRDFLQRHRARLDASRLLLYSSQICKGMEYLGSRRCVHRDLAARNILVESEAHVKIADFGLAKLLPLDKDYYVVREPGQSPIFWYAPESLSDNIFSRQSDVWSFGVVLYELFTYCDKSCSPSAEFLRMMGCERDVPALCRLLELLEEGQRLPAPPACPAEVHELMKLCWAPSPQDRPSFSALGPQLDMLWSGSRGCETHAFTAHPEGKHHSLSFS
propertyMeasured: IC50

Reported IC50, compound O=S(=O)(N[C@H]1C[C@@H](N2CCOc3cnc4[nH]ccc4c32)C1)C1CN(C2CC2)C1 [Compound E] : ____
> 10 µM

====

Assay: iv PK mice
Conditions: female, mouse, in vivo, read-out: iv PK mice: t½
propertyMeasured: half-life (min)
One number for each entry, in min.

Reported half-life, compound O=S(=O)(N[C@H]1C[C@@H](N2CCOc3cnc4[nH]ccc4c32)C1)C1CN(C2CC2)C1 [Compound E] : ____
26.4

====

Assay: Protein binding analysis (RED), minipig plasma
Assay type: in vitro ADME
Conditions: male, Göttingen, pH 7.4, read-out: minipig FU
Protocol: The protein binding was assessed in plasma of Human, male balb-c mice, male Wistar Han rat, male Göttingen minipig by rapid equilibrium dialysis (RED) devices. After the plasma and buffer phosphate 50 mM pH7.4 were equilibrated at 37° C., the compound was added to plasma to reach a final concentration of 5 μM. […] Supernatant was quantified in HPLC/MS/MS to calculate the recovery and the percentage of compound dissolved in the buffer (unbound) and bound to plasma proteins.
Give fraction unbound at 4 h, 5 μM for every item shown.
Answers are plain numbers.

{"columns": ["compound", "fraction unbound at 4 h, 5 μM"],
 "data": [
  ["O=S(=O)(N[C@H]1C[C@@H](N2CCOc3cnc4[nH]ccc4c32)C1)C1CN(C2CC2)C1", 0.32]
]}

Next compound, please.
Reported fraction unbound at 4 h, 5 μM, compound N#CC[C@H](C1CCCC1)n1cc(-c2ncnc3[nH]ccc23)cn1 [Ruxolitinib, reference compound] : ____
0.25

====

Assay: In vivo pharmacokinetic analysis in rat (iv)
Design: species or system male Wistar Han rat
Conditions: male, Wistar Han, whole blood, iv 1 mg/kg, read-out: iv PK rat: t½ (converted)
Method: One male Wistar Han rat. Compound was administered intravenously to fed animal at a target dose of 1 mg/kg, dose volume: 2 mL/kg, in DMSO/hydroxypropyl-beta-cyclodextrin 20% in phosphate buffer 60 mM pH 7 (5:95). Blood samples were collected at various time points. Blood samples were then assayed using a method based upon protein precipitation with acetonitrile followed by LC/MS/MS analysis. Non-compartmental methods were used for pharmacokinetic analysis of blood concentration versus time data
propertyMeasured: half-life (min)
One number for each entry, in min.

Reported half-life, molecule O=S(=O)(N[C@H]1C[C@@H](N2CCOc3cnc4[nH]ccc4c32)C1)C1CN(C2CC2)C1 : ____
23.4

====

Give IC50 for every item shown.
Biological target: CYP2D6 (Homo sapiens, UniProt P10635)
Construct: Human pooled liver microsomes of mixed gender (mainly Caucasian); from tissue; host or cells: pooled human liver microsomes
Sequence (P10635 whole entry): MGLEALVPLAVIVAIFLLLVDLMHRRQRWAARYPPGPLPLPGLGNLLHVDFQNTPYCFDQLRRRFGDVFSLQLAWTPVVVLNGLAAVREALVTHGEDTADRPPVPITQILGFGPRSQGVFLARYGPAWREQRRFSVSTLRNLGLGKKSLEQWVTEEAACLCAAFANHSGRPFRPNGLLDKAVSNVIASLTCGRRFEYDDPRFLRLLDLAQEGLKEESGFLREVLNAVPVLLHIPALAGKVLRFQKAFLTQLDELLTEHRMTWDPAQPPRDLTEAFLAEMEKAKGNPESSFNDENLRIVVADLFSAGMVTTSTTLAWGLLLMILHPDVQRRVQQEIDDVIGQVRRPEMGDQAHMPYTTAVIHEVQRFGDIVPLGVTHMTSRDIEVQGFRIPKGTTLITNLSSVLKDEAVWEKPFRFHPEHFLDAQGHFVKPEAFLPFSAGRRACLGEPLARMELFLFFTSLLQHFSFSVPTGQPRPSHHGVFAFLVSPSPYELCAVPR
Test: CYP2D6 inhibition in human liver microsomes
Type: in vitro ADME
Settings: dextromethorphan, CRL data

{"columns": ["compound", "IC50"],
 "data": [
  ["N#CC[C@H](C1CCCC1)n1cc(-c2ncnc3[nH]ccc23)cn1 [Ruxolitinib, reference compound]", "> 30 µM"]
]}

Next compound, please.
Reported IC50, compound O=S(=O)(N[C@H]1C[C@@H](N2CCOc3cnc4[nH]ccc4c32)C1)C1CN(C2CC2)C1 : ____
20 µM

====

Target: hERG channel (Homo sapiens, UniProt Q12809)
Sequence (Q12809 whole entry): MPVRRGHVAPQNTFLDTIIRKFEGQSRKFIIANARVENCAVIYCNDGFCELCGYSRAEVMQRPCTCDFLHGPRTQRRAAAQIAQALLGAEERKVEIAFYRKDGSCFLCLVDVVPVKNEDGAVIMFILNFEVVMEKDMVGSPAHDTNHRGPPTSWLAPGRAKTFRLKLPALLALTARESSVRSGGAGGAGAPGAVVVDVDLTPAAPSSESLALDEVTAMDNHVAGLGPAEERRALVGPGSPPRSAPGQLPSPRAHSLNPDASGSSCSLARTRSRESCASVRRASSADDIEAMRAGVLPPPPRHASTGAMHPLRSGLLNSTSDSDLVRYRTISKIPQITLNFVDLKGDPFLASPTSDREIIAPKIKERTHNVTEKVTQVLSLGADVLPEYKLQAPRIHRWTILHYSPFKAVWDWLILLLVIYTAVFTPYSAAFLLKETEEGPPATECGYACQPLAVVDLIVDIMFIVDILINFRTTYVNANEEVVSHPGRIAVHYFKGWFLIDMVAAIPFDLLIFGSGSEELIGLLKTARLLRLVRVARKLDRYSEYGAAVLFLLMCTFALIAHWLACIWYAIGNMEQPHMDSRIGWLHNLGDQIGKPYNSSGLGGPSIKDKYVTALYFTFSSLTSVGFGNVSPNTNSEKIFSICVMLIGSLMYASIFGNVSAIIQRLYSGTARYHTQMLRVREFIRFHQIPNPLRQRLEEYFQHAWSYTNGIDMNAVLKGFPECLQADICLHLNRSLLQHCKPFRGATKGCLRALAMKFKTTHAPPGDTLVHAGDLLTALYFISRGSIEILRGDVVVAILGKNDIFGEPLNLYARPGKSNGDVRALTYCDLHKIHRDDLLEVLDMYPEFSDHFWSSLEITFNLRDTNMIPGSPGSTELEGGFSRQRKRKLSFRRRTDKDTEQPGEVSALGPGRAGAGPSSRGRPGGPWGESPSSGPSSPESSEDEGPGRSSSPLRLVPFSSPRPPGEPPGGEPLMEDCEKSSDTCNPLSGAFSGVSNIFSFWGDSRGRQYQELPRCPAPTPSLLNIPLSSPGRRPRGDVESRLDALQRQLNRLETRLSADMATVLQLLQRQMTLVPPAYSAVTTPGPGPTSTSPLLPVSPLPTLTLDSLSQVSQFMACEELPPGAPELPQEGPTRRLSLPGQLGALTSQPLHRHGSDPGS
Experiment: In vitro hERG channel whole cell patch clamp
Conditions: CHO-K1 cells expressing hERG
propertyMeasured: pIC50
Answers are plain numbers, as −log10 of the molar value.

For the record O=S(=O)(N[C@H]1C[C@@H](N2CCOc3cnc4[nH]ccc4c32)C1)C1CN(C2CC2)C1 , what value of pIC50 is listed for hERG channel (Homo sapiens, UniProt Q12809)?
4.82

====

Experiment: In vivo pharmacokinetic analysis in rat (iv)
Parameters: species or system male Wistar Han rat
Conditions: male, Wistar Han, whole blood, iv 1 mg/kg, read-out: iv PK rat: Cl
propertyMeasured: clearance (mL/min/kg)
One number for each entry, in mL/min/kg.

{"columns": ["compound", "clearance (mL/min/kg)"],
 "data": [
  ["O=S(=O)(N[C@H]1C[C@@H](N2CCOc3cnc4[nH]ccc4c32)C1)C1CN(C2CC2)C1", 52]
]}

Next compound, please.
Reported clearance, compound N#CC[C@H](C1CCCC1)n1cc(-c2ncnc3[nH]ccc23)cn1 [Ruxolitinib, reference compound] : ____
40

====

Assay: In vivo pharmacokinetic analysis in minipig (iv)
Parameters: species or system male Göttingen minipigs
Details: male, Göttingen, whole blood, iv 1 mg/kg, read-out: iv PK minipig: Cl
Give clearance for every item shown.
Give me the value, and tack the unit on after it.

{"columns": ["compound", "clearance"],
 "data": [
  ["N#CC[C@H](C1CCCC1)n1cc(-c2ncnc3[nH]ccc23)cn1 [Ruxolitinib, reference compound]", "19 mL/min/kg"]
]}

Reported clearance, compound O=S(=O)(N[C@H]1C[C@@H](N2CCOc3cnc4[nH]ccc4c32)C1)C1CN(C2CC2)C1 [Compound E] : ____
48 mL/min/kg

====

Experiment: iv PK mice
Conditions: female, mouse, in vivo
propertyMeasured: Vd (L/kg)
Answers are plain numbers, in L/kg.

Reported Vd, compound O=S(=O)(N[C@H]1C[C@@H](N2CCOc3cnc4[nH]ccc4c32)C1)C1CN(C2CC2)C1 : ____
2.6
